assay: NCI Yeast Anticancer Drug Screen. Data for the rad50 strain (AID 155);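 also: 0% = growth of vehicle-only cultures of the same strain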; settings: S. cerevisiae rad50 strain growth inhibition; at 100.0 µM; stronger effect = higher value
The panel holds about 79,000 compounds, 15% with a hit somewhere; the sample as a whole holds those more often.
Readout label: growth inhibition (%)
Express it in %; write the number only.

Task item: Please list growth inhibition recorded for the compound `CC(=O)Nc1ccc2c(c1)C(=Nc1ccc(C(=O)O)cc1)c1ccccc1-2`
Reply: 95

Task item: Please list growth inhibition recorded for the compound C=C1CC(Cn2cc(Br)c(=O)[nH]c2=O)(c2ccc(-c3ccccc3)cc2)OC1=O (centres undefined)
Reply: 92

Task item: Please list growth inhibition recorded for the compound `FC(F)(F)c1nc2nc(Cl)c(Cl)nc2n1CCCN1CCOCC1`
Reply: 27

Task item: Please list growth inhibition recorded for the compound CN1CCc2ccccc2C1Cc1ccccc1NC(=O)c1sc2ccccc2c1Cl (centres undefined)
Reply: 90

----------
test: NCI Yeast Anticancer Drug Screen. Data for the wt1 strain (AID 149);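 also: 0% = growth of vehicle-treated wt1 cultures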; settings: S. cerevisiae wt1 strain (SPY 50644) growth inhibition; at 100.0 µM
About 79,000 compounds went through this panel and 15% of them were active in at least one assay; those are over-represented in the sample as a whole. Activity calls are given as the source filed them. Cut-off read from the data, not from the text of the source: active = growth inhibition above about 70%; inactive = the rest.
# valid calls are active, inactive; nothing else

Answered cases to consult:
{"columns": ["Molecule", "Qualitative label"],
 "data": [
  ["C[C@H](CCC(=O)NN)[C@H]1CC[C@H]2[C@@H]3CC[C@@H]4C[C@H](O)CC[C@]4(C)[C@H]3CC[C@]12C", "inactive"],
  ["O=C(Nc1ccccc1)OCCc1ccc(Cl)c(Cl)c1", "inactive"],
  ["CN(N=O)N1C(=O)SCC(c2ccccc2)(c2ccccc2)C1=O", "inactive"]
]}

Task item: Recorded test call requested for `CC(=O)OCc1ccc(O)c(C=O)c1`
Reply: inactive

Task item: Recorded test call requested for Nc1ccn(C2OC(CO)C3[O][Sn]([c]4ccccc4)([c]4ccccc4)[O]C32)c(=O)n1 (stereo not drawn)
Reply: inactive

Task item: Recorded test call requested for `C/C(=N\NC(=S)N1CCCCC1)c1cccc(C)n1`
Reply: active

Task item: Recorded test call requested for `Cc1nc(-c2ccccc2)c(-c2ccccc2)s1`
Reply: active

Task item: Recorded test call requested for `O=C(O)c1cccc(-c2c3ccc(=O)cc-3oc3cc(O)ccc23)c1`
Reply: active

Task item: Recorded test call requested for `Cc1c(C(=O)C(=O)c2ccccc2)c(C)c(C(=O)C(=O)c2ccccc2)c(C)c1C(=O)C(=O)c1ccccc1`
Reply: inactive

Task item: Recorded test call requested for `O=C(COC(=O)c1cc(O)c(O)c(O)c1)c1ccc(-c2ccccc2)cc1`
Reply: active

Task item: Recorded test call requested for C=CCC1=C(C)C(OC(=O)/C=C/c2ccccc2)CC1=O (stereo not drawn)
Reply: inactive

Task item: Recorded test call requested for `N#CN=Nc1cc(Cl)c(N=NC#N)cc1Cl`
Reply: inactive

Task item: Recorded test call requested for `CN(CCc1ccccn1)c1ccc2c(c1)Cc1ccccc1-2`
Reply: inactive

----------
assay: NCI Yeast Anticancer Drug Screen. Data for the rad18 strain (AID 177); conditions: S. cerevisiae rad18 mutant growth inhibition; at 11.0 µM; stronger effect = higher value
About 79,000 compounds went through this panel and 15% of them were active in at least one assay; those are over-represented in the sample as a whole.
Readout label: growth inhibition (%)
Express it in %; write the number only.

{"columns": ["Compound", "growth inhibition, %"],
 "data": [
  ["O=C(NNc1ccnc2cc(Cl)ccc12)/C(=C\\c1ccccc1Cl)NC(=O)c1ccccc1", 34],
  ["COc1ccc(C2c3cc4c(cc3OC(C)(O)C2C)OCO4)c(OC)c1 (centres undefined)", 1],
  ["O=C(O)C1OC1(c1cccc(Cl)c1)c1ccccc1Cl (centres undefined)", 3]
]}

Task item: Please list growth inhibition recorded for the compound CC1(Cl)CC(O)C2(CC1Br)C1(C)OC1C1OC1(Br)C2(C)C (centres undefined)
Reply: 25

Task item: Please list growth inhibition recorded for the compound `COc1ccc(O)c(/C=N\Nc2ccccc2)c1`
Reply: -2

Task item: Please list growth inhibition recorded for the compound `O=C(/C=C\c1ccc(Cl)cc1Cl)c1cccs1`
Reply: 29

Task item: Please list growth inhibition recorded for the compound `CCCC/C=C/C(CC)(C(=O)OCC)C(=O)OCC`
Reply: 4

Task item: Please list growth inhibition recorded for the compound `COc1ccc(NC(=S)N/N=C(\c2ccccc2)c2ccccn2)cc1`
Reply: -2

Task item: Please list growth inhibition recorded for the compound CC(C(=O)N1C(=O)N(C(=O)[C@H](C)C(O)c2ccccc2)[C@H](c2ccccc2)[C@H]1c1ccccc1)[C@@H](O)c1ccccc1 (some centres undefined)
Reply: 25
